Measurement target: HLA B*1503 (Homo sapiens, UniProt P01889, A329T/A93T/A95T/C349S/D201E/D98Y/E187L/E204Q/K202T/N87E/Q94N/R155S/R180L/S121R/S35A/V306I/V36M/Y140S/Y91S)
Measurement notes: biochemical
Where a SMILES comes first, the peptide text is derived from it.
We begin with a simple list: items and their reported pIC50.
Keep in mind that pIC50 stands for -log10 of concentration in molar terms.

Req: Would you kindly share the measured pIC50 for CC[C@H](C)[C@H](NC(=O)[C@H](CCSC)NC(=O)[C@H](CC(C)C)NC(=O)[C@@H]1CCCN1C(=O)[C@H](CCCNC(=N)N)NC(=O)[C@H](Cc1ccccc1)NC(=O)[C@H](CCCCN)NC(=O)[C@@H](N)CCCCN)C(=O)N[C@@H](Cc1ccccc1)C(=O)O [3102.1138] (H-KKFRPLMIF-OH) ?
Resp: 9.77

Req: Another molecule to check: CC[C@H](C)[C@H](N)C(=O)N[C@@H](CC(C)C)C(=O)N[C@@H](C)C(=O)N1CCC[C@H]1C(=O)N[C@@H](CC(N)=O)C(=O)N1CCC[C@H]1C(=O)N[C@@H](CC(N)=O)C(=O)N[C@@H](CCCNC(=N)N)C(=O)N[C@@H](Cc1ccccc1)C(=O)O [3102.1221] (H-ILAPNPNRF-OH)
Resp: 7.59

Req: Entry to check: CC[C@H](C)[C@H](NC(=O)[C@H](CO)NC(=O)[C@H](CC(C)C)NC(=O)[C@@H](NC(=O)[C@H](CCCCN)NC(=O)[C@@H](N)Cc1c[nH]c2ccccc12)C(C)C)C(=O)N[C@@H](CCSC)C(=O)N[C@@H](C)C(=O)N[C@@H](Cc1ccccc1)C(=O)O [3102.1300] (H-WKVLSIMAF-OH)
Resp: 8.03

====

Items are presented alongside their recorded pIC50.
Measurement target: HLA A*3001 (Homo sapiens, UniProt P04439, D140H/D185E/E176W/F33S/G80R/H175R/K168Q/R138E/R41S)
Measurement notes: biochemical
Assay type: binding
Where a SMILES comes first, the peptide text is derived from it.
Worth noting: pIC50 values are minus log10 of concentrations stated in mol/L.

Some molecules with recorded pIC50:
Req: Fill in the blank: the reported pIC50 of CC(C)C[C@H](NC(=O)[C@H](C)NC(=O)[C@H](Cc1ccc(O)cc1)NC(=O)[C@H](CCCNC(=N)N)NC(=O)[C@@H](NC(=O)[C@@H](N)CC(C)C)[C@@H](C)O)C(=O)N[C@@H](Cc1c[nH]cn1)C(=O)NCC(=O)N[C@@H](CCCCN)C(=O)O [3102.0179] (H-LTRYALHGK-OH) is ____.
Resp: 9.60

Req: Next: CSCC[C@H](NC(=O)[C@H](Cc1ccccc1)NC(=O)[C@H](CCCCN)NC(=O)[C@H](CCCNC(=N)N)NC(=O)[C@H](CO)NC(=O)[C@@H](N)CCSC)C(=O)N[C@@H](CCC(N)=O)C(=O)N[C@H](C(=O)N[C@@H](Cc1ccc(O)cc1)C(=O)O)C(C)C [3102.0264] (H-MSRKFMQVY-OH)
Resp: 8.82

Please turn your attention to the following entry.
Req: Looking for the measured pIC50 of CC[C@H](C)[C@H](NC(=O)[C@@H](NC(=O)[C@@H](N)CCCNC(=N)N)[C@@H](C)O)C(=O)N[C@@H](CS)C(=O)N[C@H](C(=O)N[C@@H](CC(C)C)C(=O)N1CCC[C@H]1C(=O)N[C@@H](Cc1ccc(O)cc1)C(=O)N[C@@H](CC(C)C)C(=O)O)[C@@H](C)O [3102.0170] (H-RTICTLPYL-OH) , can you help?
Resp: 9.13

====

Measurement target: HLA B*5801 (Homo sapiens, UniProt P01889, A329T/C349S/D201E/D98Y/E176V/E187L/E204Q/E69T/G107R/I218V/I90N/K202T/L105A/L119I/N104I/N87E/Q89R/Q94S/R106L/R155S/R180L/R86G/S101N/S121R/S35A/S48A/T118I/V127L/V306I/V36M/Y140S/Y91M)
Type: binding
Mark yes (1) for reported Normalized average relative binding affinity(ARB) of 0.3 or greater; mark no (0) for anything smaller.

Req: Determine whether this sequence has Normalized average relative binding affinity(ARB) no lower than 0.3: XXXXXXXLX [3064.0150]
Resp: yes (1)

Here is the next item to consider.
Req: Given the entry XXXXQXXXX [3064.0094] , answer whether its Normalized average relative binding affinity(ARB) meets or surpasses 0.3.
Resp: no (0)

====

Measurement target: H-2 K^k (Mus musculus, UniProt P04223)
Format: binding
Measured quantity: Normalized average relative binding affinity(ARB)

Consider the worked cases shown below.
Req: Record request: Normalized average relative binding affinity(ARB) value, item XXXXXRXXX [3064.0115]
Resp: 0.39

Req: // query: XXXXXIXXX [3064.0108]
Resp: 0.55

Req: Repeat with XXXXXMXXX [3064.0111]
Resp: 0.36

Req: Now consider XXXXXXXTX [3064.0157] and answer again.
Resp: 0.28

Req: Try XXXXDXXXX [3064.0083] next.
Resp: 0.026

Further cases:
Req: Recorded Normalized average relative binding affinity(ARB) for XXXXQXXXX [3064.0094] , please?
Resp: 0.099

Req: Now try XXXNXXXXX [3064.0072] .
Resp: 0.22

Req: And XXXXXXVXX [3064.0138] ?
Resp: 0.079

Req: Same lookup for XXXXXXEXX [3064.0124] , please.
Resp: 0.13

Req: Also need XXXXXXSXX [3064.0136] , thanks.
Resp: 0.16

Req: Please give the result for XXXWXXXXX [3064.0079] too.
Resp: 1.0

Req: Next entry: XXXXXXRXX [3064.0135]
Resp: 0.21

Req: Again, but for XXXXGXXXX [3064.0086]
Resp: 0.17

Req: Next entry: XXXMXXXXX [3064.0071]
Resp: 0.42

Req: Param item: XXXXWXXXX [3064.0099]
Resp: 1.0

Req: Further, for XXXXNXXXX [3064.0092] ?
Resp: 0.090

====

Measurement target: HLA B*1501 (Homo sapiens, UniProt P01889, A329T/A93T/A95T/C349S/D201E/D98Y/E187L/E204Q/E69M/E70A/K202T/N87E/Q94N/R155S/R180W/S121R/S35A/S48A/V306I/V36M/Y140S/Y91S)
Measurement notes: biochemical
Format: binding
The label fulfilled is reserved for Normalized average relative binding affinity (ARB), HLA B*1501 strictly under 0.3; not fulfilled covers values equal to or above it.

Req: I wonder whether XAXXXXXXX [3064.0021] has Normalized average relative binding affinity (ARB), HLA B*1501 below 0.3. Can you tell?
Resp: not fulfilled

Req: Can you handle XHXXXXXXX [3064.0027] next?
Resp: fulfilled

Req: Next up: XMXXXXXXX [3064.0031]
Resp: not fulfilled

Req: Please answer likewise for XXIXXXXXX [3064.0048]
Resp: not fulfilled

Req: Check XXLXXXXXX [3064.0050] too.
Resp: fulfilled

Req: Same lookup for IXXXXXXXX [3064.0008] , please.
Resp: not fulfilled

Now turn to the next sequence.
Req: Check if Normalized average relative binding affinity (ARB), HLA B*1501 falls below 0.3 for XQXXXXXXX [3064.0034] .
Resp: not fulfilled

====

Measurement target: HLA A*3001 (Homo sapiens, UniProt P04439, D140H/D185E/E176W/F33S/G80R/H175R/K168Q/R138E/R41S)
Measurement notes: biochemical
Where a SMILES comes first, the peptide text is derived from it.
Reported pIC50 values follow for various compounds
Conceptually, pIC50 converts a concentration in mol/L into minus its log10.

Req: Fill in the blank: the reported pIC50 of CSCC[C@H](N)C(=O)N[C@@H](CO)C(=O)N[C@@H](CCCNC(=N)N)C(=O)N[C@@H](CCCNC(=N)N)C(=O)N[C@@H](Cc1ccc(O)cc1)C(=O)N[C@@H](CO)C(=O)N[C@@H](CCCNC(=N)N)C(=O)N[C@@H](CCC(=O)O)C(=O)N[C@@H](CCCCN)C(=O)O [3102.0203] (H-MSRRYSREK-OH) is ____.
Resp: 8.89

***
Req: Give the measured pIC50 of CC[C@H](C)[C@H](NC(=O)[C@@H](NC(=O)[C@H](Cc1c[nH]c2ccccc12)NC(=O)[C@H](Cc1ccccc1)NC(=O)CNC(=O)[C@H](CO)NC(=O)[C@H](CCCNC(=N)N)NC(=O)[C@H](Cc1ccc(O)cc1)NC(=O)[C@@H](N)CCCNC(=N)N)[C@@H](C)CC)C(=O)O [3102.0085] (H-RYRSGFWII-OH) .
Resp: 8.06

Req: Now give it for CC[C@H](C)[C@H](NC(=O)[C@@H](NC(=O)[C@H](CC(N)=O)NC(=O)[C@H](CCCCN)NC(=O)[C@H](CO)NC(=O)[C@@H](N)CCCNC(=N)N)[C@@H](C)O)C(=O)N[C@H](C(=O)N[C@H](C(=O)N[C@@H](C)C(=O)O)[C@@H](C)CC)[C@@H](C)CC [3102.0089] (H-RSKNTIIIA-OH) too.
Resp: 9.80

Just for reference, paper PMC2248166 is where these values come from.
